Where do these numbers come from? They come from patent US20230265187A1.

Each record here notes measured Kd.
# TARGET_ENTITY: T1, his-tagged human TIGIT (Acro Biosystems #TIT-H52H3) (human, UniProt Q495A1 22-141)
# T1 construct: Bought protein; also called His-tagged-TIGIT (human); not shown: his tag
# T1 sequence (looked up): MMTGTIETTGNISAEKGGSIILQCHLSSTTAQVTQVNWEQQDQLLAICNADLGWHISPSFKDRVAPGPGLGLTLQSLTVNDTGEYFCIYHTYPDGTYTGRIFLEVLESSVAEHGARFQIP
# PROTOCOL_DESCRIPTION: SPR (Carterra LSA), scFv-Fc captured, His-TIGIT analyte
OUTCOME_MEASURE: Kd (nM)

>>> measured_result("43586p1.2.F9 (scFv, V domains shown) VH: EVQLLESGGGLVQPGGSLRLSCAASGFTFDDYVMSWVRQAPGKGLEWVSLINWNGDKTYYADSVKGRFTISRDNSKNTLYLQMNSLRAEDTAIYYCAKHWIVFQYGMDVWGRGTTVTVSS VL: QSVLTQPPSASGTPGQRVTISCSGSISNIETKYVSWYQQLPGTAPKLLIYNSDQRPSGVPDRFSGSKSGTSASLAISGLQSEDEADYYCVSWDASLKSWVFGGGTKLTVL")
0.338
>>> measured_result("43352p1.A11 (scFv, V domains shown) VH: DVQLVESGGGVVRPGESLRLSCAASGFTFSSHAMSWVRQAPGEGLEWVSLTSGNGVSAYYADSVKGRFTISRDNSKNTLYLQMNSLSAEDTAIYYCARGTYLISFFDYWGLGTLVTVSS VL: QSVLTQPPSASGTPGQRVTISCSGISAKIGNNYVSWYQQLPGTAPKLLIYFNNQRPSGVPDRFSGSKSGTSASLAISGLQSEDEADYYCASWDDSLNAWLFGGGTKLTVL")
0.0716
